target: human CD3 expressed on cells (Jurkat cells; human T-cells of PBMC) (human, UniProt P09693 23-182; P20963 22-164); experiment: cell-based or functional assay
Sequence (chain, as listed by the source, chain 1 of 4): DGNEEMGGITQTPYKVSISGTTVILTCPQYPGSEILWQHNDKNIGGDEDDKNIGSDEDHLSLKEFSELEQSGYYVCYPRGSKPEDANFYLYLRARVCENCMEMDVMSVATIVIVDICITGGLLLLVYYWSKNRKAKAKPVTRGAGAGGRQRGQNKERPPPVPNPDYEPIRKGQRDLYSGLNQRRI
Sequence (chain, as listed by the source, chain 2 of 4): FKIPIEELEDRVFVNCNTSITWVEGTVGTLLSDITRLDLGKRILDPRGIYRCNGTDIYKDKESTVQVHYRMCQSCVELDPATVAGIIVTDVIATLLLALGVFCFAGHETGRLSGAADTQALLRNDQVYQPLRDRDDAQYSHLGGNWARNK
Sequence (P09693 23-182, chain 3 of 4): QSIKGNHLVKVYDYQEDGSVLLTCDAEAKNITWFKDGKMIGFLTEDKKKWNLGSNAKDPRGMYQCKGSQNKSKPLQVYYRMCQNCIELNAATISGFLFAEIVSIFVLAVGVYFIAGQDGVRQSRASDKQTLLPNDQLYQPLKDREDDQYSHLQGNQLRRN
Sequence (P20963 22-164, chain 4 of 4): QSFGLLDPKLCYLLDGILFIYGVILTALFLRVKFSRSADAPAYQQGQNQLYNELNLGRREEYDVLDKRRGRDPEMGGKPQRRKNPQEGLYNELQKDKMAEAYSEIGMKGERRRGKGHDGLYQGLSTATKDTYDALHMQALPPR
Value type: U937 Cytotoxicity Human T-cells (pM)
The answer is to be given in pM; state only the numeric part.

Would you mind telling me what U937 Cytotoxicity Human T-cells value was observed for H2M2691N (antibody, mouse IgG2, V domains shown) VH: EVQLVESGGGLVQPGRSLRLSCAASGFTFDDYTMHWVRQAPGKGLEWVSGISWNSGSIGYADSVKGRFTISRDNAKKSLYLQMNSLRAEDTALYYCAKDNSGYGHYYYGMDVWGQGTTVTVAS VL: EIVMTQSPATLSVSPGERATLSCRASQSVSSNLAWYQQKPGQAPRLLIYGASTRATGIPARFSGSGSGTEFTLTISSLQSEDFAVYYCQHYINWPLTFGGGTKVEIK ?
23.4

Would you mind telling me what U937 Cytotoxicity Human T-cells value was observed for H2M2708N (antibody, mouse IgG2, V domains shown) VH: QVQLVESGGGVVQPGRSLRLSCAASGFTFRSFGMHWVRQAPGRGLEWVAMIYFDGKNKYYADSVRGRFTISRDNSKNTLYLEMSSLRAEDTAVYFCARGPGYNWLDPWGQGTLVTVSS VL: EIVMTQSPATLSVSPGERVTLSCRASQSISRNLAWYQQKPGQAPRLLIYGASTRATGVPARFSGSGSGTEFTLTISSLQSEDFAVFHCQQYNNRPLTFGGGTEVEIK ?
3.27

Would you mind telling me what U937 Cytotoxicity Human T-cells value was observed for H1M2712N (antibody, mouse IgG1, V domains shown) VH: EVQLVESGGGLVQPGGSLRLSCAATGFTFDDFTMHWVRQAPGKGLEWVSGISWNSGSIGYVDSVKGRFTISRDNAKNSLYLQMNSLRAEDTALYYCAKDNSGYGYYYYGMDVWGQGTTVTVSS VL: EIVMTQSPATLSVSPGERATLSCRASHSVSRNSAWYQQKPGQAPRLLIYGASTRATGIPARFSGSGSGTEFTLTISSLQSEDFAIYYCQQYNNWPLTFGGGTKVEIK ?
314

Would you mind telling me what U937 Cytotoxicity Human T-cells value was observed for H2M3540N (antibody, mouse IgG2, V domains shown) VH: QVHLEESGGGVVQPGRSLRLSCSASGFTFSSYAMHWVRQAPGKGLEWVAVIWYDGTNKYYLDSVKGRFTISRDNSKNTLFLQMNSLRAEDTAVYYCARDRGSIITHWGQGTLVTVSS VL: DIQMTQSPSSLSASIGDRVTITCRASQNISSYLNWYQQKPGKAPKLLIYAASSLQSGVPSRFSGSGSGTDFTLTISSLQPEDFATYYCQQTYSTPPITFGQGTRLEIK ?
12.5
